# procedureDetails: AUClast in CD-1 mouse plasma at 10 mg/kg
# Assay type: ADME, organism-based
# Design: time 0 - last, dose 10 mg/kg

compound	AUC(0-t), ng·h/mL
Clc1cc(CN(C2CCNCC2)C2CC(c3ccc(Br)cc3)C2)ccc1Br (stereo unspecified)	10500

* * *

# procedureDetails: Cmax in CD-1 mouse plasma at 10 mg/kg
# Assay type: ADME, organism-based
# Design: dose 10 mg/kg

compound	Cmax / ng/mL
Clc1cc(CN(C2CCNCC2)C2CC(c3ccc(Br)cc3)C2)ccc1Br (stereo unspecified)	759

* * *

# procedureDetails: Ratio of AUClast in liver to plasma in CD-1 mouse at 10 mg/kg
# Format: ADME, organism-based
assayMetric: Kp

compound	endpointValue
Clc1cc(CN(C2CCNCC2)C2CC(c3ccc(Br)cc3)C2)ccc1Br (stereo unspecified)	76

* * *

# procedureDetails: Tmax in CD-1 mouse brain at 10 mg/kg
# Format: ADME, organism-based
assayMetric: Tmax (h)

compound	assayMetric	endpointValue
Clc1cc(CN(C2CCNCC2)C2CC(c3ccc(Br)cc3)C2)ccc1Br (stereo unspecified)	Tmax	24

* * *

# procedureDetails: Kinetic aqueous solubility of compound by pION uSOL method at pH 7.4
# conditionsUsed: buffer
Here the recorded log10 of solubility kinetic is given for each entry.
assayMetric: log10 of solubility kinetic (log10 of the value in µg/mL)

compound	log10 of solubility kinetic
Cc1ccc(C2CC(N(Cc3ccc(Br)c(Cl)c3)C3CCCNCC3)C2)cc1 (stereo not given)	1.41
Clc1cc(CN(C2CCNCC2)C2CC(c3ccc(Br)cc3)C2)ccc1Br (stereo not given)	0.52
Cc1ccc(C2CC(N(Cc3ccc(Br)c(Cl)c3)C3CCN(C)CC3)C2)cc1 (stereo not given)	1.36
Cc1ccc(C2CC(N(Cc3ccc(Br)c(Cl)c3)C3CCNCC3)C2)cc1 (stereo not given)	1.26
Cc1ccc(C2CC(N(Cc3ccc(Br)c(Cl)c3)C3CC4CNC3C4)C2)cc1 (stereo not given)	0.86
Cc1ccc([C@H]2C[C@H](N(Cc3ccc(Br)c(Cl)c3)C3CCNCC3)C2)cc1	0.04
Clc1cccc(C2CC(N(Cc3ccc(Br)c(Cl)c3)C3CCNCC3)C2)c1 (stereo not given)	0.60
Cc1ccc(C2CC(N(Cc3ccc(Br)c(Cl)c3)C3CC4CCC(C3)N4)C2)cc1 (stereo not given)	1.05
Cc1ccc([C@H]2C[C@@H](N(Cc3ccc(Br)c(Cl)c3)C3CCNCC3)C2)cc1	0.99

* * *

# procedureDetails: Permeability of the compound by PAMPA method
# Type: ADME
# conditionsUsed: read-out: permeability

compound	unitDescriptor	boundType	Papp
Cc1ccc(C2CC(N(Cc3ccc(Br)c(Cl)c3)C3CCC(N)CC3)C2)cc1 (stereo unspecified)	×10⁻⁶ cm/s	=	818
Cc1ccc(C2CC(N(Cc3ccc(Br)c(Cl)c3)C3CCOCC3)C2)cc1 (stereo unspecified)	×10⁻⁶ cm/s	<	6.4
Clc1cc(CN(C2CCNCC2)C2CC(c3cccc(Br)c3)C2)ccc1Br (stereo unspecified)	×10⁻⁶ cm/s	=	14
Cc1ccc(C2CC(N(Cc3ccc(Br)c(Cl)c3)C3CCN(C)CC3)C2)cc1 (stereo unspecified)	×10⁻⁶ cm/s	=	274
Cc1cccc(C2CC(N(Cc3ccc(Br)c(Cl)c3)C3CCNCC3)C2)c1 (stereo unspecified)	×10⁻⁶ cm/s	=	265
Cc1ccc(C2CC(N(Cc3ccc(Br)c(Cl)c3)C3CC4CNC3C4)C2)cc1 (stereo unspecified)	×10⁻⁶ cm/s	=	123
Cc1ccc(C2CC(N(Cc3ccc(Br)c(Cl)c3)C3CCNCC3)C2)cc1 (stereo unspecified)	×10⁻⁶ cm/s	=	806
Fc1ccc(C2CC(N(Cc3ccc(Br)c(Cl)c3)C3CCNCC3)C2)cc1 (stereo unspecified)	×10⁻⁶ cm/s	=	398
Cc1ccc(C2CC(N(Cc3ccc(Br)c(Cl)c3)C3CCN(C(C)C)CC3)C2)cc1 (stereo unspecified)	×10⁻⁶ cm/s	<	23.1
Clc1cc(CN(C2CCNCC2)C2CC(c3ccc(Br)cc3)C2)ccc1Br (stereo unspecified)	×10⁻⁶ cm/s	=	32
Cc1ccc(C2CC(N(Cc3ccc(Br)c(Cl)c3)C3CCCNCC3)C2)cc1 (stereo unspecified)	×10⁻⁶ cm/s	=	666

* * *

# procedureDetails: Tmax in CD-1 mouse brain at 1 mg/kg
# Assay type: ADME, organism-based
assayMetric: Tmax (h)

molecule	endpointValue
Cc1ccc([C@H]2C[C@H](N(Cc3ccc(Br)c(Cl)c3)C3CCNCC3)C2)cc1	1.5

* * *

# procedureDetails: AUClast in CD-1 mouse liver at 10 mg/kg
# Format: ADME, organism-based
# Set-up: time 0 - last, dose 10 mg/kg

compound	AUC(0-t) [µg·h/mL]
Clc1cc(CN(C2CCNCC2)C2CC(c3ccc(Br)cc3)C2)ccc1Br (stereo unspecified)	793

* * *

# procedureDetails: Ratio of AUClast in brain to plasma in CD-1 mouse at 1 mg/kg
# Format: ADME, organism-based

molecule	Kp
Cc1ccc([C@H]2C[C@H](N(Cc3ccc(Br)c(Cl)c3)C3CCNCC3)C2)cc1	11

* * *

# procedureDetails: AUClast in CD-1 mouse plasma at 1 mg/kg
# Format: ADME, organism-based
# Design: time 0 - last, dose 1 mg/kg
assayMetric: AUC(0-t) (ng·h/mL)

molecule	assayMetric	endpointValue
Cc1ccc([C@H]2C[C@H](N(Cc3ccc(Br)c(Cl)c3)C3CCNCC3)C2)cc1	AUC(0-t)	275

* * *

# procedureDetails: Ratio of AUClast in liver to plasma in CD-1 mouse at 1 mg/kg
# Format: ADME, organism-based

molecule	Kp
Cc1ccc([C@H]2C[C@H](N(Cc3ccc(Br)c(Cl)c3)C3CCNCC3)C2)cc1	35

* * *

# procedureDetails: Tmax in CD-1 mouse plasma at 1 mg/kg
# Assay type: ADME, organism-based
assayMetric: Tmax (min)

molecule	endpointValue
Cc1ccc([C@H]2C[C@H](N(Cc3ccc(Br)c(Cl)c3)C3CCNCC3)C2)cc1	10

* * *

# procedureDetails: Cmax in CD-1 mouse brain at 1 mg/kg
# Type: ADME, organism-based
# Parameters: dose 1 mg/kg

molecule	Cmax, ng/mL
Cc1ccc([C@H]2C[C@H](N(Cc3ccc(Br)c(Cl)c3)C3CCNCC3)C2)cc1	153

* * *

# procedureDetails: Tmax in CD-1 mouse liver at 10 mg/kg
# Format: ADME, organism-based
assayMetric: Tmax (h)

molecule	assayMetric	unitDescriptor	endpointValue
Clc1cc(CN(C2CCNCC2)C2CC(c3ccc(Br)cc3)C2)ccc1Br (stereo unspecified)	Tmax	h	1

* * *

# procedureDetails: Ratio of AUClast in brain to plasma in CD-1 mouse at 10 mg/kg
# Assay type: ADME, organism-based
assayMetric: Kp

compound	assayMetric	endpointValue
Clc1cc(CN(C2CCNCC2)C2CC(c3ccc(Br)cc3)C2)ccc1Br (stereo unspecified)	Kp	54

* * *

Reported solubility kinetic by item:
# procedureDetails: Kinetic aqueous solubility of compound by pION uSOL method at pH 7.4
# conditionsUsed: buffer

molecule	solubility kinetic
Cc1ccc(C2CC(N(Cc3ccc(Br)c(Cl)c3)C3CCNC3)C2)cc1 (stereo unspecified)	23.2 µg/mL
Cc1ccc(C2CC(N(Cc3ccc(Br)c(Cl)c3)C3CCOCC3)C2)cc1 (stereo unspecified)	< 1 µg/mL
Cc1ccc(C2CC(N(Cc3ccc(Br)c(Cl)c3)C3CCN(C(C)C)CC3)C2)cc1 (stereo unspecified)	15.4 µg/mL
Clc1cc(CN(C2CCNCC2)C2CC(c3cccc(Br)c3)C2)ccc1Br (stereo unspecified)	3.94 µg/mL
Cc1ccc(C2CC(N(Cc3ccc(Br)c(Cl)c3)C3C4CCC3CNC4)C2)cc1 (stereo unspecified)	< 1 µg/mL
Cc1ccc(C2CC(N(Cc3ccc(Br)c(Cl)c3)C3CCCNC3)C2)cc1 (stereo unspecified)	13.3 µg/mL

* * *

# procedureDetails: AUClast in CD-1 mouse liver at 1 mg/kg
# Assay type: ADME, organism-based
# Set-up: time 0 - last, dose 1 mg/kg

molecule	AUC(0-t), ng·h/mL
Cc1ccc([C@H]2C[C@H](N(Cc3ccc(Br)c(Cl)c3)C3CCNCC3)C2)cc1	9570

* * *

# procedureDetails: AUClast in CD-1 mouse brain at 10 mg/kg
# Assay type: ADME, organism-based
# Set-up: time 0 - last, dose 10 mg/kg

molecule	AUC(0-t), ng·h/mL
Clc1cc(CN(C2CCNCC2)C2CC(c3ccc(Br)cc3)C2)ccc1Br (stereo unspecified)	56800

The values you see were collected from ChEMBL document CHEMBL5034011.
